measurement description: PK study, single PO dose, mice
Type: in vivo
study conditions: male, CD-1, mouse, plasma, 90 mg/kg, male CD-1 mice, PO 90 mg/kg, Suspension A (SDD)
value kind: Cmax (µg/mL)
// note: answer is a bare numeric in µg/mL

[in] Supply measured Cmax of `CC(C)(c1ccc(OCc2ccnc(NS(C)(=O)=O)n2)cc1)c1cc(Cl)c(OCCCl)c(C#N)c1` in your reply.
[out] 110

====

measurement description: PK study, single PO dose, dogs
Format: in vivo
study conditions: male, Beagle, dog, plasma, 50 mg/kg, PO 50 mg/kg, Solution (5% NMP, 20% vitamin E TPGS, 20% PEG 300, 0.5% SLS, 1.09% HPMCAS-H, 53.91% water)
value kind: Cmax (µg/mL)
Report the figure in µg/mL without appending any unit label.

[in] In one line, give reported Cmax of the entry CC(C)(c1ccc(OCc2ccnc(NS(C)(=O)=O)n2)cc1)c1cc(Cl)c(OCCCl)c(C#N)c1 [Compound A] .
[out] 45.8

====

measurement description: PK study, single PO dose, mice
Type: in vivo
study conditions: male, CD-1, mouse, plasma, 30 mg/kg, male CD-1 mice, PO 30 mg/kg, Suspension A (SDD)
value kind: Cmax (µg/mL)
Provide only the numeric value, understood in µg/mL.

[in] Indicate its recorded Cmax; the molecule in question is `CC(C)(c1ccc(OCc2ccnc(NS(C)(=O)=O)n2)cc1)c1cc(Cl)c(OCCCl)c(C#N)c1`
[out] 45.9

====

measurement description: PK study, single PO dose, rats
Format: in vivo
study conditions: Sprague-Dawley, rat, plasma; male SD rats, PO 30 mg/kg, Solution (4% NMP, 20% Capmul MCM, 21% Vitamin E TPGS, 55% PEG400)
value kind: Cmax (ng/mL)
Form entry: value (ng/mL) — number only.

[in] Tell me Cmax reported for CC(C)(c1ccc(OCc2ccnc(NS(C)(=O)=O)n2)cc1)c1cc(Cl)c(OCCCl)c(C#N)c1 [Compound A]
[out] 26800

====

measurement description: PK study, single PO dose, rats
Type: in vivo
study conditions: Sprague-Dawley, rat, plasma; male SD rats, PO 100 mg/kg, Suspension A (SDD with HPMCAS-H in 0.5% Methocel A4M in water)
value kind: Tmax (h)
Report as a plain number; the unit h is understood.

[in] Return reported Tmax. Input compound: CC(C)(c1ccc(OCc2ccnc(NS(C)(=O)=O)n2)cc1)c1cc(Cl)c(OCCCl)c(C#N)c1 [Compound A]
[out] 5.3

====

measurement description: PK study, single PO dose, dogs
Type: in vivo
study conditions: male, Beagle, dog, plasma, 50 mg/kg, PO 50 mg/kg, Solution (5% NMP, 20% vitamin E TPGS, 20% PEG 300, 0.5% SLS, 1.09% HPMCAS-H, 53.91% water)
value kind: Tmax (h)
Kindly answer with a numeric value in h, unit omitted.

[in] Output measured Tmax for this item: `CC(C)(c1ccc(OCc2ccnc(NS(C)(=O)=O)n2)cc1)c1cc(Cl)c(OCCCl)c(C#N)c1`
[out] 2

====

measurement description: Phase I clinical study, PK
Type: in vivo, human
study conditions: male, human, in vivo, po, 200 mg/day, patients, 200 mg/day oral SDD with HPMCAS-H, Day 28, N 3
value kind: Tmax

[in] Please supply the value of reported Tmax for the item CC(C)(c1ccc(OCc2ccnc(NS(C)(=O)=O)n2)cc1)c1cc(Cl)c(OCCCl)c(C#N)c1 [Compound A]
[out] 6.7 h
